- System: A498 renal
- assay_text: NCI-60 one-dose screen, 48 h (100 = growth as untreated, 0 = no growth, -100 = all killed)
- cond: 10 µM unless noted
Compounds without any hit were thinned out: in the full panel of roughly 83,000, 20% have a hit.
# binarize growth: threshold 90% inclusive, high side Met, low side Not met

// known answers, use as guide
[[record]]
molecule = "COc1ccc(OC)c(NC(=O)c2cc3oc4ccccc4c3cc2O)c1"
label_class = "Met"

[[record]]
molecule = "COc1c(C)c2c(c(O)c1C/C=C(\\C)CCC(=O)OCCN1CCOCC1)C(=O)OC2"
label_class = "Not met"

[[record]]
molecule = "O=c1cc(-c2cccnc2)oc2c1ccc1ccccc12"
label_class = "Not met"

[[record]]
molecule = "C=C(C)[C@@H]1C[C@H](O)Cc2cc(Cl)cc(Cl)c2N1"
label_class = "Not met"

[[record]]
molecule = "Clc1ccc2nc(Cl)c3ccccc3c2c1"
label_class = "Not met"

[[record]]
molecule = "Cc1cc2c(C#N)n3c(c2cc1C)C(=O)C(c1ccccc1)Oc1ccccc1-3 (stereo unspecified)"
label_class = "Not met"

[[record]]
molecule = "Clc1ccc([C@@H]2C[C@@H]3Cc4cc(Br)c5ccccc5c4N2O3)c(Cl)c1"
label_class = "Not met"

[[record]]
molecule = "CC[C@]1(O)CC2CN(CCc3c([nH]c4ccccc34)[C@@](C(=O)OC)(c3cc4c(cc3OC)N(C)[C@H]3[C@@](O)(C(=O)OC)[C@H](OC(C)=O)[C@]5(CC)C=CCN6CC[C@]43[C@@H]65)C2)C1 (stereo partly specified)"
label_class = "Not met"


I'd appreciate it if you could say whether COc1cc(C2NC(c3ccc(Cl)cc3)C(C)C(=NC(=O)c3cnccn3)C2C)cc(OC)c1OC (stereo unspecified) has growth at least equal to 90%.
Met

Hello, I need to know if "CC1=NN(c2ccccc2Cl)C(=O)/C1=C\c1cn(S(=O)(=O)c2ccc(C)cc2)c2ccccc12" has measured growth not below 90%. Thanks!
Met

Is growth for CC(C)(C)c1ccc(C(O)CCCN2CCC(C(O)(c3ccccc3)c3ccccc3)CC2)cc1 (stereo unspecified) at or above 90%?
Not met

Please indicate if the recorded growth for "C[C@]12C[C@H](O)[C@H]3[C@@H](CCC4=CC(=O)CC[C@@]43C)[C@@H]1CC[C@@H]2C(=O)CO" meets or exceeds 90%.
Not met

Form field: growth at least 90%? Entry: CCCCCCCC1(C)NC(=O)NC1=O (stereo unspecified)
Met

Decide: is the reported value of growth for "Cc1cc(C(C)(C)C)cc(C)c1CC1=NCCN1" equal to or greater than 90%?
Met

Is growth at least 90%? Consider "COc1ccc2nc3cc(Cl)ccc3c(Nc3cc(C(C)C)c(O)cc3C)c2c1"
Not met

Evaluate CC(=O)Oc1ccc(C23c4ccccc4C2(OC(C)=O)c2cc(OC(C)=O)ccc23)cc1 (stereo unspecified) : growth at minimum 90%?
Met

---

- Test system: OVCAR-3 ovarian
- assay_text: NCI-60 one-dose screen, 48 h (100 = growth as untreated, 0 = no growth, -100 = all killed)
- cond: 10 µM unless noted
- Protocol: Growth inhibition of the OVCAR-3 human tumor cell line is measured as a screen for anti-cancer activity. Cells are grown in 96 well plates and exposed to the test compound for 48 hours. Compounds are tested at a single concentration, which is 10^-5 M for most compounds. The reported endpoint is percent growth (GI% or GIPRCNT), where numbers from 0 - 100% represent growth inhibition, and numbers from -100% - 0 represent cell death. For example, a value of 40 represents 60% growth inhibition. […]
This is part of a sample that, as a whole, favours compounds with a hit. Of some 83,000 tested, about 20% had one in any assay. Activity calls are given as the source filed them. How the source made its calls: active means growth percent below 10; inactive means the rest.
Provide the recorded growth for the entries that follow.

# annotated cases, reported growth shown
[[record]]
molecule = "S=c1[nH]nc2sc3ccccc3n12"
value = "119% (inactive)"

[[record]]
molecule = "CC1SC(c2c(Cl)cccc2Cl)N(NC(=O)c2[nH]c3ccc(F)cc3c2-c2ccccc2)C1=O (centres undefined)"
value = "-62.2% (active)"

[[record]]
molecule = "COc1ccc(-c2oc3cc(O)c(OC)c(O)c3c(=O)c2OC)cc1O"
value = "-40.1% (active)"

[[record]]
molecule = "O=C(Nc1cccc([N+](=O)[O-])c1)c1cccc(C(=O)Nc2cccc([N+](=O)[O-])c2)c1"
value = "71.1% (inactive)"

[[record]]
molecule = "COc1ccc(C(=O)COc2cccc(/C=C3\\Oc4ccc5ccccc5c4C3=O)c2)cc1"
value = "72.4% (inactive)"


Go through the items and report each one's growth.
1. COc1cc(/C=C2\COc3ccc(O)c(O)c3C2=O)cc(OC)c1
2. COc1cc(/C=C/C(=O)c2c(-c3ccc(F)cc3)nc3sc(C)nn23)cc(OC)c1OC
3. Cc1scc2c1N(C(=O)CN1CCN(C)CC1)c1ccccc1NC2=O
4. COc1ccc(Nc2nccc(N3CCN(c4c5ccc(Cl)cc5nc5ccc(OC)cc45)CC3)n2)cc1
5. COc1cc(C(=O)/C=C/c2cccnc2Nc2ccccc2)cc(OC)c1OC
6. O=C(Nc1ccccc1Cl)c1cnc2ccc(C3CCNCC3)cn12
7. COc1ccc(C(=O)/C=C/c2c(Cl)nc3c(c(C)nn3-c3ccccc3)c2-c2ccc(Br)cc2)cc1
8. O=c1ccn(C2OC(CO)C(O)C2F)c(=O)[nH]1 (centres undefined)

1: -32.3% (active); 2: -16.4% (active); 3: 108% (inactive); 4: 67.5% (inactive); 5: -98.5% (active); 6: 62.2% (inactive); 7: 115% (inactive); 8: 109% (inactive)

For each of the molecules below, note its growth.
1. CCCCCCCCCCCCNc1ncnc2[nH]ncc12
2. COc1ccc2c(c1)/C(=C\c1c[nH]c3ccc(F)cc13)C(=O)N2
3. CC[N+](CC)(CCOCCOCC[N+](CC)(CC)Cc1ccc([N+](=O)[O-])cc1)Cc1ccc([N+](=O)[O-])cc1
4. Cc1cc(C)n2nc(SCC(=O)Nc3sc4c(c3C(N)=O)CCC4)nc2n1
5. CC(C)COCC(CN(Cc1ccccc1)c1ccccc1)N1CCCC1 (centres undefined)
6. CN1CCCC1c1cccnc1 (centres undefined)

79.5% (inactive)
83.7% (inactive)
116% (inactive)
123% (inactive)
72.4% (inactive)
117% (inactive)
